details: in acetone, 298.15 K

| Mol Smiles | solubility (mole fraction) |
| --- | --- |
| CC(=O)c1c(C)c2cnc(Nc3ccc(N4CCNCC4)cn3)nc2n(C2CCCC2)c1=O | 7.32e-05 |
